- TARGET_ENTITY: human PF4 (Homo sapiens, UniProt P02776)
- Construct: PF4 is a 70 amino acid, lysine-rich 7.8 kDa platelet-specific protein; made in house; host or cells: Escherichia coli BL21DE3 pLysS (pT7-7) and/or Drosophila S2 cells
- Sequence (P02776 32-101): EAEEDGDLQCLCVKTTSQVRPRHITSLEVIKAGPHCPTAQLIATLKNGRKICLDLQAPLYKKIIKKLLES
- PROCEDURE_SUMMARY: Inhibition of PF4 tetramer formation (BS3 cross-linking, SDS-PAGE)
- Format: biochemical
- RECORDED_CONDITIONS: 5 μM inhibitor; read-out: % inhibition of PF4 tetramer formation at single concentration of inhibitor
For each record, write down the corresponding inhibition at 5 µM.

Record request: inhibition at 5 µM value, item O=C(Nc1ccc(I)cc1)C1C(=O)c2ccc(S(=O)(=O)c3ccc4c(c3)C(=O)C(C(=O)Nc3ccc(I)cc3)C4=O)cc2C1=O (centres unmarked)
33%

Again, but for O=C(c1ccc2c(c1)C(=O)C(C(=O)NCCc1ccccc1)C2=O)c1ccc2c(c1)C(=O)C(C(=O)NCCc1ccccc1)C2=O (centres unmarked)
83%

Field entry: O=C(c1ccc2c(c1)C(=O)C(C(=O)NCCc1ccc(F)cc1)C2=O)c1ccc2c(c1)C(=O)C(C(=O)NCCc1ccc(F)cc1)C2=O (centres unmarked)
66%

CC(C)CC(=O)C1C(=O)c2ccc(S(=O)(=O)c3ccc4c(c3)C(=O)C(C(=O)CC(C)C)C4=O)cc2C1=O (centres unmarked) , same question.
45%

Also need CCCCC(=O)C1C(=O)c2ccc(S(=O)(=O)c3ccc4c(c3)C(=O)C(C(=O)CCCC)C4=O)cc2C1=O (centres unmarked) , thanks.
100%

How about O=C(Nc1cccc(Cl)c1)C1C(=O)c2ccc(S(=O)(=O)c3ccc4c(c3)C(=O)C(C(=O)Nc3cccc(Cl)c3)C4=O)cc2C1=O (centres unmarked) ?
73%

Same again, this time with CC(C)(C)CC(=O)NCC(=O)C1C(=O)c2ccc(C(=O)c3ccc4c(c3)C(=O)C(C(=O)CNC(=O)CC(C)(C)C)C4=O)cc2C1=O (centres unmarked)
89%

Do the same for O=C(NC1CCCC1)C1C(=O)c2ccc(C(c3ccc4c(c3)C(=O)C(C(=O)NC3CCCC3)C4=O)(C(F)(F)F)C(F)(F)F)cc2C1=O (centres unmarked) please
68%

Ok, now Cc1ccc(NC(=O)C2C(=O)c3ccc(S(=O)(=O)c4ccc5c(c4)C(=O)C(C(=O)Nc4ccc(C)cc4)C5=O)cc3C2=O)cc1 (centres unmarked)
60%

Param item: O=C(c1ccc2c(c1)C(=O)C(C(=O)Cc1ccccc1)C2=O)c1ccc2c(c1)C(=O)C(C(=O)Cc1ccccc1)C2=O (centres unmarked)
79%

Please do the same for C[C@@H]1CC[C@@H](C(=O)C2C(=O)c3ccc(C(=O)c4ccc5c(c4)C(=O)C(C(=O)[C@@H]4CC[C@@H](C)N4C(=O)OC(C)(C)C)C5=O)cc3C2=O)N1C(=O)OC(C)(C)C (some centres unmarked) [Example 120B] as well.
75%

Now consider O=C(c1ccc2c(c1)C(=O)C(C(=O)Cn1cccn1)C2=O)c1ccc2c(c1)C(=O)C(C(=O)Cn1cccn1)C2=O (centres unmarked) .
88%

Can you handle COC(=O)c1ccccc1NC(=O)C1C(=O)c2ccc(C(=O)c3ccc4c(c3)C(=O)C(C(=O)Nc3ccccc3C(=O)OC)C4=O)cc2C1=O (centres unmarked) next?
44%

Same question, C[C@@H](C(=O)C1C(=O)c2ccc(S(=O)(=O)c3ccc4c(c3)C(=O)C(C(=O)[C@H](C)N(C)C(=O)OC(C)(C)C)C4=O)cc2C1=O)N(C)C(=O)OC(C)(C)C (some centres unmarked) this time
94%

Proceed to O=C(CN1CCCC1=O)C1C(=O)c2ccc(S(=O)(=O)c3ccc4c(c3)C(=O)C(C(=O)CN3CCCC3=O)C4=O)cc2C1=O (centres unmarked)
87%

Could you do the same for O=C(c1ccc2c(c1)C(=O)C(C(=O)NC1CCCC1)C2=O)c1ccc2c(c1)C(=O)C(C(=O)NC1CCCC1)C2=O (centres unmarked) , please?
2%

Now this one: O=C(c1ccc2c(c1)C(=O)C(C(=O)CN1CCCC1=O)C2=O)c1ccc2c(c1)C(=O)C(C(=O)CN1CCCC1=O)C2=O (centres unmarked)
87%

What do you have for COc1ccc(NC(=O)C2C(=O)c3ccc(C(=O)c4ccc5c(c4)C(=O)C(C(=O)Nc4ccc(OC)cc4OC)C5=O)cc3C2=O)c(OC)c1 (centres unmarked) ?
36%

Record: CC[C@H](NC(=O)OCc1ccccc1)C(=O)C1C(=O)c2ccc(C(=O)c3ccc4c(c3)C(=O)C(C(=O)[C@H](CC)NC(=O)OCc3ccccc3)C4=O)cc2C1=O (some centres unmarked)
75%

Another molecule to look at: CC(C)(C)OC(=O)N[C@@H](C(=O)C1C(=O)c2ccc(C(=O)c3ccc4c(c3)C(=O)C(C(=O)[C@H](NC(=O)OC(C)(C)C)c3ccccc3)C4=O)cc2C1=O)c1ccccc1 (some centres unmarked)
76%

Input COC(=O)[C@@H]1C[C@H]1C(=O)C1C(=O)c2ccc(S(=O)(=O)c3ccc4c(c3)C(=O)C(C(=O)[C@@H]3C[C@H]3C(=O)OC)C4=O)cc2C1=O (some centres unmarked)
67%

Same lookup for CC[C@H](NC(=O)OCc1ccccc1)C(=O)C1C(=O)c2ccc(S(=O)(=O)c3ccc4c(c3)C(=O)C(C(=O)[C@H](CC)NC(=O)OCc3ccccc3)C4=O)cc2C1=O (some centres unmarked) , please.
59%

How about O=C(Cn1cccn1)C1C(=O)c2ccc(S(=O)(=O)c3ccc4c(c3)C(=O)C(C(=O)Cn3cccn3)C4=O)cc2C1=O (centres unmarked) ?
87%
